- target-desc: wild type LRRK2 overexpressed in recombinant HEK-293T cells (Homo sapiens)
- Sequence (Q5S007 whole entry): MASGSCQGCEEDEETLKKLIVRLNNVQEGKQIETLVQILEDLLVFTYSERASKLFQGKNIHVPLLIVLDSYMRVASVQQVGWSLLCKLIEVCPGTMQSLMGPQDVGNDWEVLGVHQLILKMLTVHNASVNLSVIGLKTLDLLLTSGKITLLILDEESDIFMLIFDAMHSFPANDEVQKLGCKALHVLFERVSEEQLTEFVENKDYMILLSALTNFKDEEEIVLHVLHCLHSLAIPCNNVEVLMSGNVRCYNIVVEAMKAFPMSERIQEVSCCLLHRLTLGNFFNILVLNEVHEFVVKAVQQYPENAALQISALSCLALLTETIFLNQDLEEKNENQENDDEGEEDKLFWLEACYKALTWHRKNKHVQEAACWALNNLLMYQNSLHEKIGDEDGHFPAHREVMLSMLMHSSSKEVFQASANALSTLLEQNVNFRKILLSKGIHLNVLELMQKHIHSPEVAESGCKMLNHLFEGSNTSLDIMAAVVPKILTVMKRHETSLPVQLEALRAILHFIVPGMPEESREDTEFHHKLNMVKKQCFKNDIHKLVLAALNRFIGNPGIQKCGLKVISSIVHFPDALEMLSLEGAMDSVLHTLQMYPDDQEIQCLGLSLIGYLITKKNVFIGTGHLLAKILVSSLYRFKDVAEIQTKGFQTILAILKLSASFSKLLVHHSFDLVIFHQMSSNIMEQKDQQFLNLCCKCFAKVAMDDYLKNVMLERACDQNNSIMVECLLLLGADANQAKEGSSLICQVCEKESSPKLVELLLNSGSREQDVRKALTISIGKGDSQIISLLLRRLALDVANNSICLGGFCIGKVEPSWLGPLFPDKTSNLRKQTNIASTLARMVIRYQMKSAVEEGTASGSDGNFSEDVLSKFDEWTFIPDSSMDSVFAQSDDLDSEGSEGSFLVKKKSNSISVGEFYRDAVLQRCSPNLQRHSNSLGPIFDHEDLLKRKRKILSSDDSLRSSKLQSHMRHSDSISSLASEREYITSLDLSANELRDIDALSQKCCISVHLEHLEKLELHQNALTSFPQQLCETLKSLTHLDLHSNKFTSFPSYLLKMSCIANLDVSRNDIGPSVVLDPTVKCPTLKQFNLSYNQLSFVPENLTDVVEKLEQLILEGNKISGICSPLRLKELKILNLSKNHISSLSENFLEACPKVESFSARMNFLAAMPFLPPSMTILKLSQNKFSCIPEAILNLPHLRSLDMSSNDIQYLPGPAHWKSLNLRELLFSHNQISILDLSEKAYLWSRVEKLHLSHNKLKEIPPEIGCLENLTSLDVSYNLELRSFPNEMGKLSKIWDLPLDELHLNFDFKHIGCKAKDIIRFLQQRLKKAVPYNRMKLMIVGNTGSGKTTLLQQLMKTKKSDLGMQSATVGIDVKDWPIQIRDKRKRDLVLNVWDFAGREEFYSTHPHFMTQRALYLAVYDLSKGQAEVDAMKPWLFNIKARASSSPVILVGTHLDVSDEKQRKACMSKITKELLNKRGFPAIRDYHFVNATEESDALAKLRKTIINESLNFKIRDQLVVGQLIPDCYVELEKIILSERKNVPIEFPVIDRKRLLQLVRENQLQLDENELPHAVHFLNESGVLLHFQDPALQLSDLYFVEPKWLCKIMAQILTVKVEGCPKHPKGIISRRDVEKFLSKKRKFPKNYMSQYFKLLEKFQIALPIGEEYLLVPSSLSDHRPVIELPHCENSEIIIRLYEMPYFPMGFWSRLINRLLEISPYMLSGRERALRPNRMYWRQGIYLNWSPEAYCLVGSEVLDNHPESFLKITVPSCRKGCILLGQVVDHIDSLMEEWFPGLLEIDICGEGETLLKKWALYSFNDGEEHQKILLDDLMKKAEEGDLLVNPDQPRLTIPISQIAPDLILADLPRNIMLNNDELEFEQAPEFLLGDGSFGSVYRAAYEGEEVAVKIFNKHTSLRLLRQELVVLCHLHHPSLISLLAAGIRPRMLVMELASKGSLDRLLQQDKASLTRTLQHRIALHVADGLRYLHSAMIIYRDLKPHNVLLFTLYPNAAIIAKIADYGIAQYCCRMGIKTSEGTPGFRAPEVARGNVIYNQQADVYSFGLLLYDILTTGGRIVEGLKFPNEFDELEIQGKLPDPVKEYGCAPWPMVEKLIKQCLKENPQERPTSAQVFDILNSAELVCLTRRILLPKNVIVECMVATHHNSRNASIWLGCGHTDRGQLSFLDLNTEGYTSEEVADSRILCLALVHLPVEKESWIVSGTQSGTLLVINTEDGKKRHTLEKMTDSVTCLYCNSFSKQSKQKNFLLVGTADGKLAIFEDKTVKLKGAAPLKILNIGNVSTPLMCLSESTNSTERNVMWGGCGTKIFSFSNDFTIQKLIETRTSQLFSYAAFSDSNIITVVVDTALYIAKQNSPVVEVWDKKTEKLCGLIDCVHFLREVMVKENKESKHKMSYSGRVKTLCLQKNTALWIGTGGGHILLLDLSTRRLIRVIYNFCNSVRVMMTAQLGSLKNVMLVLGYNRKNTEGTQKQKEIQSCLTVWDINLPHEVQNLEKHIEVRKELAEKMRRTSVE
- assay-notes: pS935 LRRK2 Cell Assay (HTRF, phospho-LRRK2 Ser935)
- measurement-conditions: LRRK2 Inhibition, Table 8, 2 hours compound incubation
pIC50: −log10 of the molar value.
Classify by measured pIC50: label 1 if it is equal to or exceeds 8, label 0 if it is smaller.

Please review the following examples before continuing.
| compound | cat |
| --- | --- |
| Cc1cncc(NC(=O)Cc2nc3cnc4ccc(C#N)cc4c3n2[C@@H]2CCO[C@H](C)C2)n1 [Compound 314] | label 1 |
| C[C@@H]1C[C@H](n2c([C@H]3CN(CC4CC4)S(=O)(=O)C3)nc3cnc4ccc(C#N)cc4c32)CCO1 [Compound 2] | label 0 |

Determine whether measured pIC50 meets or exceeds 8 for C[C@@H]1C[C@H](n2c(CC(=O)Nc3nccc(C4CC4)n3)nc3cnc4ccc(C#N)cc4c32)CCO1 [Compound 338]
label 1

Next: COc1ncccc1NC(=O)Cc1nc2cnc3ccc(C#N)cc3c2n1[C@@H]1CCO[C@H](C)C1 [Compound 318]
label 1

Next: C[C@@H]1C[C@H](n2c(CNC(=O)CC3CC3)nc3cnc4ccc(C#N)cc4c32)CCO1 [Compound 18]
label 0

###

Each entry below carries its measured pIC50, system: LRRK2 wild type enzyme (Homo sapiens, UniProt Q5S007).
Sequence (Q5S007 whole entry): as above
// pIC50 is dimensionless: -log10 of concentration (M)

| compound | pIC50 |
| --- | --- |
| C[C@@H]1C[C@H](n2c(CC(=O)Nc3ccc(Cl)nc3)nc3cnc4ccc(C#N)cc4c32)CCO1 | 9.65 |
| C[C@@H]1C[C@H](n2c(CC(=O)NCCCO)nc3cnc4ccc(C#N)cc4c32)CCO1 | 9.24 |
| COc1cc(F)ncc1NC(=O)Cc1nc2cnc3ccc(C#N)cc3c2n1[C@@H]1CCO[C@H](C)C1 | 9.35 |
| C[C@@H]1C[C@H](n2c(C3CC(=O)N(Cc4cccnc4)C3)nc3cnc4ccc(C#N)cc4c32)CCO1 (mixture of isomers) [Compound 57] | 9.02 |
| C[C@@H]1C[C@H](n2c(C3CN(C(=O)C4CC4)C3)nc3cnc4ccc(C#N)cc4c32)CCO1 | 8.13 |
| C[C@@H]1C[C@H](n2c(CC(=O)Nc3ccnn3C3COC3)nc3cnc4ccc(C#N)cc4c32)CCO1 | 9.24 |
| Cc1cc(CNC(=O)Cc2nc3cnc4ccc(C#N)cc4c3n2[C@@H]2CCO[C@H](C)C2)no1 | 9.49 |
| C[C@@H]1C[C@H](n2c(CC(=O)NC3(C(F)(F)F)CC3)nc3cnc4ccc(C#N)cc4c32)CCO1 | 8.79 |

# get_value(readout='pIC50', item= `C[C@@H]1C[C@H](n2c(CC(=O)Nc3cccnc3Cl)nc3cnc4ccc(C#N)cc4c32)CCO1` )
9.27

Next: `C[C@@H]1C[C@H](n2c(CC(=O)NCC3CC3)nc3cnc4ccc(Cl)cc4c32)CCO1`
9.45

Next: `C[C@@H]1C[C@H](n2c(CC(=O)Nc3cncc(C#N)c3)nc3cnc4ccc(C#N)cc4c32)CCO1`
9.27

Next: `C[C@@H]1C[C@H](n2c(CC(=O)NCCc3ccccn3)nc3cnc4ccc(C#N)cc4c32)CCO1`
9.23

Next: `C[C@@H]1C[C@H](n2c(CNS(=O)(=O)C3CC3)nc3cnc4ccc(C#N)cc4c32)CCO1`
8.17

Next: `C[C@@H]1C[C@H](n2c(CC(=O)NC3COC3)nc3cnc4ccc(Cl)cc4c32)CCO1`
9.28

Next: C[C@@H]1C[C@H](n2c(CC(=O)N[C@@H]3C[C@H]3c3cccnc3)nc3cnc4ccc(C#N)cc4c32)CCO1 [Compound 365]
9.27
